Tested on: Rattus norvegicus
Assay: Prodrug activation in Sprague-Dawley rat liver hepatocytes assessed as formation of adefovir diphosphate at 30 mg/kg, po after 8 hrs
Type: organism-based, Hepatocyte
Design: dose 30 mg/kg, route oral
property label: Activity (nmol·h/g)

Use the examples below as a reference point.
Exercise: Reported Activity for Nc1ncnc2c1ncn2CCOCP1(=O)OCCC(c2ccccc2)O1 (configuration not stated) : what is it?
Solution: 0.6

Exercise: And Nc1ncnc2c1ncn2CCOCP1(=O)OCCC(c2cc(Cl)cc(Cl)c2)O1 (configuration not stated) ?
Solution: 2

Exercise: Try the compound Nc1ncnc2c1ncn2CCOCP1(=O)OCCC(c2cccc(Cl)c2)O1 (stereo in doubt; 3h)
Solution: 6.6

Exercise: What about this compound? Nc1ncnc2c1ncn2CCOCP1(=O)OCCC(c2ccccc2Br)O1 (configuration not stated)
Solution: 7.1

Exercise: Similarly, Nc1ncnc2c1ncn2CCOCP1(=O)OCCC(c2cc(F)cc(F)c2)O1 (configuration not stated) ?
Solution: 2.2

A: Nc1ncnc2c1ncn2CCOCP1(=O)OCCC(c2cccc(Br)c2)O1 (configuration not stated)
B: Nc1ncnc2c1ncn2CCOCP1(=O)OCCC(c2ccncc2)O1 (configuration not stated)
Exercise: Hi there, can you help? I need to know whether A or B has lower measured Activity. API: response body contains the label of the selected item.
Solution: B

----------
Test system: Hepatocyte
Test: Prodrug activation in intracellular rat hepatocytes assessed as formation of adefovir diphosphate after 2 hrs
Format: cell-based
property label: Activity (nmol·h/g)

Would you please look over these solved cases?
Exercise: Quick one: Activity of Nc1ncnc2c1ncn2CCOCP1(=O)OCCC(c2cccc(Cl)c2)O1 (stereo in doubt; 3h) ?
Solution: 109.3

Exercise: Another: Nc1ncnc2c1ncn2CCOCP1(=O)OCCC(c2cc(F)cc(F)c2)O1 (stereo unspecified)
Solution: 61.9

P: Nc1ncnc2c1ncn2CCOCP1(=O)OCCC(c2ccoc2)O1 (stereo unspecified)
Q: Nc1ncnc2c1ncn2CCOCP1(=O)OCCC(c2ccc(Cl)c(Cl)c2)O1 (stereo unspecified)
Exercise: Hi! Which is lower in terms of Activity, the first one P or the second one Q ? Give the label of your selection.
Solution: P
(P: 0 nmol·h/g, Q: 6.2 nmol·h/g)

1: Cc1cc(C)cc(C2CCOP(=O)(COCCn3cnc4c(N)ncnc43)O2)c1 (stereo unspecified)
2: Nc1ncnc2c1ncn2CCOCP1(=O)OCCC(c2cccnc2)O1 (stereo unspecified)
3: CC(C)(C)c1ccc(C2CCOP(=O)(COCCn3cnc4c(N)ncnc43)O2)cc1 (stereo unspecified)
4: Nc1ncnc2c1ncn2CCOCP1(=O)OCCC(c2cc(Cl)cc(Cl)c2)O1 (stereo unspecified)
Exercise: Exam item: list the entries in increasing order of Activity. Would you mind listing the labels in the order requested?
Solution: 3, 2, 1, 4

1: Nc1ncnc2c1ncn2CCOCP1(=O)OCCC(c2cccc(Br)c2)O1 (stereo unspecified)
2: Nc1ncnc2c1ncn2CCOCP1(=O)OCCC(c2ccsc2)O1 (stereo unspecified)
3: Nc1ncnc2c1ncn2CCOCP1(=O)OCCC(c2ccc(Cl)cc2Cl)O1 (stereo unspecified)
4: Nc1ncnc2c1ncn2CCOCP1(=O)OCCC(c2ccncc2)O1 (stereo unspecified)
5: Nc1ncnc2c1ncn2CCOCP1(=O)OCCC(c2ccccc2Br)O1 (stereo unspecified)
Exercise: Ascending by Activity, please. Answer with the labels in sequence, matching the requested order.
Solution: 2, 3, 5, 1, 4
